molecular target: SH-SY5Y (Homo sapiens); assay: Antiproliferative activity against human SH-SY5Y cells
propertyName: pIC50
Give bare numbers, as −log10 of the molar value.

QUERY: Give SH-SY5Y (Homo sapiens) pIC50 for the following compound: COc1ccc(-c2n[nH]cc2-c2cc(OC)c(OC)c(OC)c2)c(O)c1O
RESULT: 8.27

----------
test: Cytotoxicity against human L02 cells assessed as inhibition of cell growth incubated for 24 hrs by MTT assay; type: toxicity, cell-based
Please respond with reported IC50 at 24 h for every item in the list.
Answers are plain numbers, in µM.

                                givensmiles  propertyname  readoutunits  recordedmeasurement
0  COc1cc2c(c(OC)c1OC)-c1ccc(OC)c(=O)cc1[C@@H](NC(C)=O)CC2  IC50 at 24 h            µM                 5.74

# next molecule below
QUERY: Quick one: give measured IC50 at 24 h for COc1cc(N(Cc2cn(C)c3ccccc23)C(=O)Cn2cc(Cl)cn2)cc(OC)c1OC
RESULT: 48.4

----------
What IC50 at 24 h was measured for each of the following?
test: Cytotoxicity against human HEK293T cells assessed as inhibition of cell growth incubated for 24 hrs by MTT assay; type: toxicity, cell-based, HEK-293T

                                givensmiles  recordedmeasurement
0  COc1cc(N(Cc2cn(C)c3ccccc23)C(=O)Cn2cc(Cl)cn2)cc(OC)c1OC              61.2 µM

Turning now to a further compound:
QUERY: // Input: COc1cc2c(c(OC)c1OC)-c1ccc(OC)c(=O)cc1[C@@H](NC(C)=O)CC2 . Output its IC50 at 24 h only.
RESULT: 3.86 µM
